# system: human GYS1 (Homo sapiens (Human))
# Sequence (P13807 whole entry): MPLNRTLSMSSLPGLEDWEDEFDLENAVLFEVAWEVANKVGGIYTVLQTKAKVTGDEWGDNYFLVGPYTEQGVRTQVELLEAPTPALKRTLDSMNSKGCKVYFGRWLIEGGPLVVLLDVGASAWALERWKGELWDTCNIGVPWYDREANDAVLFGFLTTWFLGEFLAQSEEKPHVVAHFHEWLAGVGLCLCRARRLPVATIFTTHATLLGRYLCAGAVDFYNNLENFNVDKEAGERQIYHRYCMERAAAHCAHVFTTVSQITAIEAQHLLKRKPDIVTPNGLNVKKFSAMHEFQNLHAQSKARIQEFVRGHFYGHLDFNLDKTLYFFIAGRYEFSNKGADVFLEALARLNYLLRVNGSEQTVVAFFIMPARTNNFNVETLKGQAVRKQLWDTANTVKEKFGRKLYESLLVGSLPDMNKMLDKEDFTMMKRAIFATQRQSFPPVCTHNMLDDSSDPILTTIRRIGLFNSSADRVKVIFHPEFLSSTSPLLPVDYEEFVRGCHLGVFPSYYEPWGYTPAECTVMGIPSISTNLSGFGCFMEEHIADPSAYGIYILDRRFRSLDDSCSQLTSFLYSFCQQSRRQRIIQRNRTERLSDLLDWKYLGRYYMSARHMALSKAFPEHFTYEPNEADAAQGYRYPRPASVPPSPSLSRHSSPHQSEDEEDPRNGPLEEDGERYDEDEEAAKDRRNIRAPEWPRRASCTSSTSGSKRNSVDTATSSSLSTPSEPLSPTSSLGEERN
# Sequence (P46976 whole entry partner): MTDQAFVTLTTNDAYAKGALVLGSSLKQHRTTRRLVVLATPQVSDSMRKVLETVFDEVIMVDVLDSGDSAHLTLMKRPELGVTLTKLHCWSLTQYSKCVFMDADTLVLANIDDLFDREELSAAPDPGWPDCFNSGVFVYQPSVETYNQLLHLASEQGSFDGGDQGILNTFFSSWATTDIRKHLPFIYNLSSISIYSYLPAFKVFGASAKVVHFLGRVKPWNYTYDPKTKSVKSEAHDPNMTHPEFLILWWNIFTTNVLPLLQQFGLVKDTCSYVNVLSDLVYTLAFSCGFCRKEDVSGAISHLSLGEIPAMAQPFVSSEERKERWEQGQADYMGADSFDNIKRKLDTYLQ
# method summary: GYS1 coupled enzyme assay (PK/LDH)
# assay context: recombinant hGYS1/GN1 protein; geometric mean of at least 2 assay runs
assay readout: IC50 (µM)
Numbers only, in µM.

Below: 5 molecules and their reported IC50.
INSERT INTO assay_data (molecule, system, recorded_number) VALUES
  ('CC1(C)CC2(CC([C@@H](NC(=O)C3CCCC3C(=O)O)c3ccccc3)C2)C1 (single isomer, unassigned)', 'human GYS1 (Homo sapiens (Human))', 2.39),
  ('CC(C)c1ccc(C(NC(=O)C2CCCC2C(=O)O)c2cccs2)cc1 (single isomer, unassigned) [Compound 44]', 'human GYS1 (Homo sapiens (Human))', 12.9),
  ('CC(C)c1ccc([C@@H](NC(=O)[C@@H]2CCC[C@@H]2C(=O)O)c2ccccc2)cc1F', 'human GYS1 (Homo sapiens (Human))', 0.236),
  ('CC(C)c1ccc(C(NC(=O)C2CCCC2C(=O)O)c2cccs2)cc1 (single isomer, unassigned) [Compound 43]', 'human GYS1 (Homo sapiens (Human))', 19.8),
  ('CC1(c2ccc([C@@H](NC(=O)[C@@H]3CCC[C@@H]3C(=O)O)c3ccccc3)cc2)CC1', 'human GYS1 (Homo sapiens (Human))', 1.01);

Lab note: each molecule below needs its IC50 filled in.
1. CC(C)c1ccc([C@@H](NC(=O)[C@@H]2CCC[C@@H]2C(=O)O)c2ccccc2NC(=O)C2CNC2)cc1
2. CC(C)c1ccc([C@@H](NC(=O)[C@@H]2CCCC[C@@H]2C(=O)O)c2cccs2)cc1
3. CC(C)c1ccc([C@@H](NC(=O)[C@@H]2CCC[C@@H]2C(=O)O)c2ccn[nH]2)cc1
4. CC(C)c1ccc([C@@H](NC(=O)[C@@H]2CCC[C@@H]2C(=O)O)c2cccc3oc(=O)[nH]c23)cc1
5. CC(C)c1ccc([C@@H](NC(=O)[C@@H]2CCC[C@@H]2C(=O)O)c2ccccc2NC(N)=O)cc1F

Response:
1: 2.36; 2: 0.961; 3: 2.39; 4: 2.93; 5: 2.82
